# measurement_target: recombinant human MASP2 active protease (amino acids 297-686, C-terminal His Tag) (human, UniProt O00187 297-686)
# Sequence (O00187 other isoform, or with tags, fused parts or gaps limits assumed): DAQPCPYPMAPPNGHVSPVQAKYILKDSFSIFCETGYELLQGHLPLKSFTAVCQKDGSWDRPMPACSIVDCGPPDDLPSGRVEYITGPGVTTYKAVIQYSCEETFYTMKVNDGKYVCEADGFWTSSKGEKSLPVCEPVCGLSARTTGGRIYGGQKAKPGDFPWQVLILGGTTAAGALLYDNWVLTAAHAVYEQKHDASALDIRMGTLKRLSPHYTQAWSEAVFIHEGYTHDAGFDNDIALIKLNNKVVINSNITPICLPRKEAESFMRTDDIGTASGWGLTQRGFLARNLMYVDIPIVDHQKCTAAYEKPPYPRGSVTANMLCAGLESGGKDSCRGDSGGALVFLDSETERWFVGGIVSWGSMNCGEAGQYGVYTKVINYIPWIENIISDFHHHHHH
# method_summary: cell-based or functional assay
Bridge positions count the residues as written; N and C are the ends. Square brackets hold non-standard residues; d marks the D form. Ends that are not written are not given here. Dap = NC[C@H](N)C(=O)O; Sar = CNCC(=O)O
Overview of recorded human MASP2 IC50 for various binders
State just the number; it will be interpreted in nM.

[Sar]ICSRSLPPICI[dP]D-OH (disulfide 3-11; N-terminus assumed; SMILES CC[C@H](C)[C@H](NC(=O)CNC)C(=O)N[C@H]1CSSC[C@@H](C(=O)N[C@H](C(=O)N2CCC[C@@H]2C(=O)N[C@@H](CC(=O)O)C(=O)O)[C@@H](C)CC)NC(=O)[C@H]([C@@H](C)CC)NC(=O)[C@@H]2CCCN2C(=O)[C@@H]2CCCN2C(=O)[C@H](CC(C)C)NC(=O)[C@H](CO)NC(=O)[C@H](CCCNC(=N)N)NC(=O)[C@H](CO)NC1=O) [Example 386: ((N-Me)G)-IC+SRSLPPIC+IpD-OH] = 750

Query string: For the binder [Sar]ICSR[Dap]LPPICIPD-OH (disulfide 3-11; N-terminus assumed; SMILES CC[C@H](C)[C@H](NC(=O)CNC)C(=O)N[C@H]1CSSC[C@@H](C(=O)N[C@H](C(=O)N2CCC[C@H]2C(=O)N[C@@H](CC(=O)O)C(=O)O)[C@@H](C)CC)NC(=O)[C@H]([C@@H](C)CC)NC(=O)[C@@H]2CCCN2C(=O)[C@@H]2CCCN2C(=O)[C@H](CC(C)C)NC(=O)[C@H](CN)NC(=O)[C@H](CCCNC(=N)N)NC(=O)[C@H](CO)NC1=O) [Example 413: ((N-Me)G)-IC+SR-(Dap)-LPPIC+IPD-OH] , give its reported human MASP2 IC50.
Result string: 2000
